- Test system: RPMI-8226
- experiment: NCI tumour cell line growth inhibition, 48 h
Activity calls are given as the source filed them. No stated cut-off is given here; in the data, active = GI50 up to about 1.1 µM and inactive = higher.
Outcome codes: active, inactive

compound: C[n+]1c2ccccc2c(CNC(CCC(N)=O)C(=O)O)c2ccccc21 (stereo not given)
assigned.class: active
//
compound: COc1cc2nc(-c3cccs3)nc(Nc3cccc([N+](=O)[O-])c3)c2cc1OC
assigned.class: inactive
//
compound: Cc1ccc(/N=c2/oc3c(ccc4ccccc43)nc2Nc2ccc(C)cc2)cc1
assigned.class: inactive
//
compound: O=C(NC1CC1)c1c(O)[nH]c(=S)[nH]c1=O
assigned.class: inactive
//
compound: C/C(=N\NC(=S)N1CCC1)c1ccccn1
assigned.class: active
//
compound: COc1cc(C)c(/C=C2/N=C(c3ccccc3)OC2=O)c([N+](=O)[O-])c1OC
assigned.class: inactive
//
compound: CN1CCc2cc3c4cc2C1Cc1ccc(cc1)Oc1cc(ccc1O)CC1c2c(cc(O)c(c2O4)O3)CCN1C (stereo not given)
assigned.class: inactive
//
compound: CC1C/C(=N\N(C)C)C(C#N)(C#N)C1(C#N)C#N (stereo not given)
assigned.class: inactive
//
compound: C=CC(c1ccccc1)C1(O)c2cccc(O)c2C(=O)c2c(O)cccc21 (stereo not given)
assigned.class: inactive
//
compound: CCOC(=O)C(=CNC(Cc1c[nH]c2ccccc12)C(=O)OC)C(=O)OCC (stereo not given)
assigned.class: inactive
//
compound: O=C1C[C@@H](c2ccccc2)O[C@@H](c2ccccc2)C1
assigned.class: inactive
//
compound: COc1cc2c(cc1OC)C(CCN)=NCC2
assigned.class: inactive
//
compound: O=C1CN(c2ccccc2)C(=O)CN1CCN1CC(=O)N(c2ccccc2)CC1=O
assigned.class: inactive
//
compound: OCCCCCNc1nc(O)c2[nH]cnc2n1
assigned.class: inactive
//
compound: OC(c1ccc(Cl)cc1)(c1ccc(Cl)cc1)c1cncnc1
assigned.class: inactive

----------
- Test system: LXFL 529
- experiment: NCI tumour cell line growth inhibition, 48 h
Calls of active or inactive are those of the source. No stated cut-off is given here; in the data, active = GI50 up to about 1.1 µM and inactive = higher.
Outcome codes: TRUE for active, FALSE for inactive

compound: NNC(=O)C1CCC(=O)N1S(=O)(=O)c1ccccc1 (stereo not given)
assigned.class: FALSE

compound: CN(C)CCCOc1ccc(/C=C2/CCC/C(=C/c3ccc(OCCCN(C)C)cc3)C2=O)cc1
assigned.class: FALSE

compound: CC1=NN(C(=O)CC(=O)Nc2ccccc2F)C(=O)C1/N=N/c1ccccc1[N+](=O)[O-] (stereo not given)
assigned.class: FALSE

compound: O=c1oc2c3ccc4ccccc4c3n(CCCN3CCCCC3)c2c2ccccc12
assigned.class: FALSE

compound: c1cc2c(cc1C1OCC3C(c4ccc5c(c4)OCO5)OCC13)OCO2 (stereo not given)
assigned.class: FALSE

compound: O=C1C=CC(=O)c2ccc(=O)ccc21
assigned.class: FALSE

compound: O=C(N/C(=C\c1cccc([N+](=O)[O-])c1)c1nc2c(O)nc(S)nc2[nH]1)c1ccccc1
assigned.class: FALSE

compound: C[n+]1c2ccccc2c(CNC(CCC(N)=O)C(=O)O)c2ccccc21 (stereo not given)
assigned.class: TRUE

compound: Cc1n[nH]c(N)c1C(N)=O
assigned.class: FALSE

compound: Cc1ccc(N(C(=O)CC(=O)NN)C(=O)c2ccccc2Cl)cc1
assigned.class: FALSE

compound: CO[C@@H]1C=C[C@@]23c4cc5c(cc4CN(C[C@@H]2O)[C@H]3C1)OCO5 [(+)-HAEMANTHAMINE]
assigned.class: FALSE

compound: Cc1ccc(S(=O)(=O)N/N=C(/CC(=O)c2c(C)[n+]([O-])c3ccccc3[n+]2[O-])C(=O)Nc2ccc(C)c(C)c2)cc1
assigned.class: FALSE

compound: O=C1c2ccccc2C2(O)N(c3ccccc3)C(=S)N(c3ccccc3)C12O (stereo not given)
assigned.class: FALSE

compound: N#C/C(=C1\OC(=N)C(c2ccccc2)C1=O)c1ccccc1 (stereo not given)
assigned.class: FALSE

compound: O=C(N/N=C/c1cccc(F)c1)c1ccncc1
assigned.class: FALSE

----------
- System: SW-620
- experiment: NCI tumour cell line growth inhibition, 48 h
Calls of active or inactive are those of the source. No stated cut-off is given here; in the data, active = GI50 up to about 1.1 µM and inactive = higher.
Outcome codes: 1 = active, -1 = inactive

compound: CC1(c2cccc(C3CC4(CCC3=O)OCCCCO4)c2)OCCO1 (stereo not drawn)
assigned.class: -1
//
compound: O=C(O)c1ccccc1C(=O)c1ccc2c(c1)Cc1ccccc1-2
assigned.class: -1
//
compound: COc1ccc(OC)c2cc(C3(C)SCCCS3)ccc12
assigned.class: -1
//
compound: COC(=O)C1=COC(C)C2C[n+]3ccc4c([nH]c5ccccc54)c3CC12 (stereo not drawn)
assigned.class: -1
//
compound: C/C(=N\NC(=S)N1CCC1)c1ccccn1
assigned.class: 1
//
compound: Nc1ccc([As](=O)(O)O)cc1
assigned.class: -1
//
compound: Cc1ccccc1/C=C/C(=O)c1ccccc1
assigned.class: -1
//
compound: CC1=C(C)C1[N+](=O)[O-]
assigned.class: -1
//
compound: COc1cc2c(c(O)c1OC)C(=O)[C@@H]1CCC(=O)N1C2
assigned.class: -1
//
compound: CC(=O)c1ccc(/N=N/c2ccc3nonc3c2N)cc1
assigned.class: -1
//
compound: O=C(N/C(=C\c1cccc([N+](=O)[O-])c1)c1nc2c(O)nc(S)nc2[nH]1)c1ccccc1
assigned.class: -1
//
compound: Cc1cc2[nH]c3c(C#N)c(-c4ccccc4)c(/N=N/c4ccc(F)cc4)c(=O)n3c2cc1C
assigned.class: -1
//
compound: COc1ccc2c(c1)[C@@H]1c3cc(OC)c(OC)cc3CCN1CCC2
assigned.class: -1
//
compound: CC(C)(C)[Si](C)(C)O/N=C\c1cccc(O[Si](C)(C)C(C)(C)C)c1
assigned.class: -1
//
compound: O=C(O)C1C(C(=O)O)C23CC2(C(=O)O)C2(C(=O)O)CCC3=C3CCCC312 (stereo not drawn)
assigned.class: -1
//
compound: COc1ccc(C2C(C(=O)O)=C(CO)Oc3cc4c(cc32)OCO4)cc1 (stereo not drawn)
assigned.class: -1
//
compound: CCOC(=O)Nc1sc2c(c1C#N)CCCC2
assigned.class: -1
//
compound: Cc1ccc(CC2(OCCN(C)C)CCC(C(C)(C)C)CC2)cc1 (stereo not drawn)
assigned.class: -1
//
compound: COc1cccc2cc(C(C)=O)c(=O)oc12
assigned.class: -1
//
compound: CSc1nc(SC)c2c(CN=[N+]=[N-])c(Br)n(Cc3ccccc3)c2n1
assigned.class: -1
//
compound: O=C(NC1CC1)c1c(O)[nH]c(=S)[nH]c1=O
assigned.class: -1
//
compound: COC(OC)C1OCC(n2cc(F)c(=O)[nH]c2=O)C1O (stereo not drawn)
assigned.class: -1
//
compound: O=C(O)CC12C3C4C5C3C1C5C42 (stereo not drawn)
assigned.class: -1
//
compound: O=C1CCCCCCCCCCC(=O)C2CCOCCOCCOCCC1Cc1cccc(n1)C2
assigned.class: -1
//
compound: C=C1CN2CCc3c([nH]c4ccccc34)C2CC1CC(=O)N(C)C (stereo not drawn)
assigned.class: -1
//
compound: N#C/C(=C\c1cc(O)c(O)c(O)c1)C(N)=O
assigned.class: -1
//
compound: Cc1cccc2c1C(=O)[C@@](C)([C@]1(C)Nc3cccc(C)c3C1=O)N2
assigned.class: -1
//
compound: CSc1nc(SC)c2c(C)cn(Cc3ccccc3)c2n1
assigned.class: -1
//
compound: COc1ccc2c(c1)O[C@@H]1[C@@H](OC3OC(CO)C(O)C(O)C3O)Oc3cc(OC)c(OC)cc3[C@]1(O)C2=O (stereo partly drawn)
assigned.class: -1
//
compound: Cc1ccc(NC(=O)c2cc(S(=O)(=O)Nc3n[nH]c(=O)[nH]3)c(SSc3cc(Cl)c(C(=O)Nc4ccc(C)cc4)cc3S(=O)(=O)Nc3n[nH]c(=O)[nH]3)cc2Cl)cc1
assigned.class: -1
//
compound: CC(=O)OC[C@H]1CN(OC(C)=O)C[C@@H](n2cc(C)c(=O)[nH]c2=O)O1
assigned.class: -1
//
compound: O=C1/C(=C\c2ccc(Cl)cc2Cl)Sc2scc(-c3cccc([N+](=O)[O-])c3)[n+]21
assigned.class: -1
//
compound: COC1/C=C/C(C)C(OC)CC(O)/C=C/C(C)C(C(C)C(OC)C(C)CCC(=O)C(C)C(C/C=C/N(C)C=O)OC)OC(=O)/C=C/C=C(\C)CC(OC)CC2=CC(=O)O[C@@H](C(C)C(OC)C1)[C@H]2O (stereo partly drawn)
assigned.class: 1
//
compound: CCC(O)(c1ccc(OC)cc1)C(c1ccc(OCc2ccccc2)cc1)c1ccc(OCc2ccccc2)cc1 (stereo not drawn)
assigned.class: -1
//
compound: C=CC(c1ccccc1)C1(O)c2cccc(O)c2C(=O)c2c(O)cccc21 (stereo not drawn)
assigned.class: -1
//
compound: N#C/C(=C1\OC(=N)C(c2ccccc2)C1=O)c1ccccc1 (stereo not drawn)
assigned.class: -1
//
compound: CN(C)CCNC(=O)Cn1ccc(=O)c2ccc([N+](=O)[O-])cc21
assigned.class: -1
//
compound: Cc1ccc(/N=c2/oc3c(ccc4ccccc43)nc2Nc2ccc(C)cc2)cc1
assigned.class: -1
